// reported IC50 per item
# Tested on: MDA-MB-231
# PROTOCOL TEXT: Antiproliferative activity against human MDA-MB-231 cells assessed as reduction in cell viability incubated for 72 hrs by MTT assay
# Assay type: functional, cell-based
# STATED CONDITIONS: MDA-MB-231, 72 h
Number in nM, nothing else.

May I ask what IC50 has been recorded for Cc1ccc(NC(=O)c2ccc(Cl)c(C(F)(F)F)c2)cc1C#Cc1nn(C[C@@H](C)CO)c2ncnc(N)c12 ?
23

May I ask what IC50 has been recorded for Cc1ccc(NC(=O)c2ccc(Cl)c(C(F)(F)F)c2)cc1C#Cc1nn(C[C@H](C)CO)c2ncnc(N)c12 ?
17

May I ask what IC50 has been recorded for COc1ccc(C(=O)Nc2ccc(C)c(C#Cc3nn(C4CCN(C)CC4)c4ncnc(N)c34)c2)cc1 ?
1360

May I ask what IC50 has been recorded for Cc1ccc(NC(=O)c2cnc(C(C)(C)C)s2)cc1C#Cc1nn(C[C@@H](C)CO)c2ncnc(N)c12 ?
34

May I ask what IC50 has been recorded for Cc1ccc(NC(=O)c2ccc(C)c(C(F)(F)F)c2)cc1C#Cc1nn(C[C@@H](C)CO)c2ncnc(N)c12 ?
48

May I ask what IC50 has been recorded for Cc1ccc(NC(=O)c2cccc(C(F)(F)F)c2)cc1C#Cc1nn(C[C@H](C)CO)c2ncnc(N)c12 ?
10

May I ask what IC50 has been recorded for CN1CCC(n2nc(C#Cc3cc(NC(=O)Nc4cccc(C(F)(F)F)c4)ccc3Cl)c3c(N)ncnc32)CC1 ?
947

May I ask what IC50 has been recorded for Cc1ccc(NC(=O)Nc2cccc(C(F)(F)F)c2)cc1C#Cc1nn(C2CCN(C)CC2)c2ncnc(N)c12 ?
515

* * *

# Tested on: MDA-MB-435
# PROTOCOL TEXT: Antiproliferative activity against human MDA-MB-435 cells assessed as reduction in cell viability incubated for 72 hrs by MTT assay
# Assay type: functional, cell-based
# STATED CONDITIONS: MDA-MB-435, 72 h
pIC50: −log10 of the molar value.
Outcome: 1 for pIC50 of at least 7; 0 for anything lower.

Illustrative cases are given below, each with its answer.
Cc1ccc(C(=O)Nc2cccc(C(F)(F)F)c2)cc1C#Cc1nn(CC2CCN(C)CC2)c2ncnc(N)c12 | 1
Cc1ccc(NC(=O)c2ccc(Cl)c(C(F)(F)F)c2)cc1C#Cc1nn(C[C@H](C)CO)c2ncnc(N)c12 | 0
Cc1ccc(C(=O)Nc2cccc(C(F)(F)F)c2)cc1C#Cc1nn(C2CCN(C)CC2)c2ncnc(N)c12 | 0
Cc1ccc(NC(=O)c2ccc(Cl)c(C(F)(F)F)c2)cc1C#Cc1nn([C@H]2CC[C@H](O)CC2)c2ncnc(N)c12 | 1
Cc1ccc(NC(=O)c2cccc(C(F)(F)F)n2)cc1C#Cc1nn(C2CCN(C)CC2)c2ncnc(N)c12 | 0

Now consider the entry below.
Is it the case that Cc1ccc(NC(=O)c2ccc(Cl)c(C(F)(F)F)c2)cc1C#Cc1nn(C2CCN(C)CC2)c2ncnc(N)c12 has pIC50 reaching or exceeding 7?
1
